Target or system Mu-type opioid receptor (Homo sapiens): recorded log10 IC50 listed per item.
Values are log10 of IC50 in nM.

Sample records with log10 IC50:
mol-smiles | log10 IC50
N[C@@H](Cc1ccc(O)cc1)C(=O)N[C@@H]1CCCCNC(=O)CNC(=O)[C@H](Cc2ccc(O)cc2)NC(=O)[C@H](Cc2ccccc2)NC1=O | 0.36
N[C@@H](Cc1ccc(O)cc1)C(=O)N[C@@H]1CCCCNC(=O)CNC(=O)[C@H](Cc2ccc(O)cc2)NC(=O)[C@H](Cc2cccnc2)NC1=O | 1.05
NC(=O)NCCC[C@@H]1NC(=O)[C@H](NC(=O)[C@@H](N)Cc2ccc(O)cc2)CCCCNC(=O)CNC(=O)[C@H](Cc2ccc(O)cc2)NC1=O | 1.83
N[C@@H](Cc1ccc(O)cc1)C(=O)N[C@@H]1CCCCNC(=O)CNC(=O)[C@H](Cc2ccc(O)cc2)NC(=O)[C@H](Cc2c[nH]c3ccccc23)NC1=O | 1.38
N[C@@H](Cc1ccc(O)cc1)C(=O)N[C@@H]1CCCCNC(=O)CNC(=O)[C@H](Cc2ccc(O)cc2)NC(=O)[C@H](Cc2ccc(O)cc2)NC1=O | 1.85

State the recorded log10 IC50 for this entry: N=C(N)NCCC[C@@H]1NC(=O)[C@H](NC(=O)[C@@H](N)Cc2ccc(O)cc2)CCCCNC(=O)CNC(=O)[C@H](Cc2ccc(O)cc2)NC1=O 2.12

Cool, now N[C@@H](Cc1ccc(O)cc1)C(=O)N[C@@H]1CCCCNC(=O)CNC(=O)[C@H](Cc2ccc(O)cc2)NC(=O)[C@H](Cc2ccncc2)NC1=O 1.51

* * *

Experiment: Selectivity ratio of Ki for guinea pig KOR to Ki for rat cortical MOR
Where a SMILES comes first, the peptide text is derived from it. Bridges are numbered along the chain shown (N, C = ends). [ ]: non-standard residue; d: D form. 2Abz = Nc1ccccc1C(=O)O; Dap = NC[C@H](N)C(=O)O
Cut-off 800 on Ratio Ki, inclusive. At or above means True; below means False.

Check out these entries, answers already filled in.
molecule | label
N[C@@H](Cc1ccc(O)cc1)C(=O)N[C@@H]1CCCCNC(=O)CNC(=O)[C@H](Cc2ccc(O)cc2)NC(=O)[C@H](Cc2cccnc2)NC1=O | True
NC(=O)NCCC[C@@H]1NC(=O)[C@H](NC(=O)[C@@H](N)Cc2ccc(O)cc2)CCCCNC(=O)CNC(=O)[C@H](Cc2ccc(O)cc2)NC1=O | False
N[C@@H](Cc1ccc(O)cc1)C(=O)N[C@@H]1CCCCNC(=O)CNC(=O)[C@H](Cc2ccc(O)cc2)NC(=O)[C@H](Cc2ccncc2)NC1=O | True

// inclusive: Ratio Ki at least 800? input: N=C(N)NCCC[C@@H]1NC(=O)[C@H](NC(=O)[C@@H](N)Cc2ccc(O)cc2)CCCCNC(=O)CNC(=O)[C@H](Cc2ccc(O)cc2)NC1=O False

Cool, now N[C@@H](Cc1ccc(O)cc1)C(=O)N[C@@H]1CCCCNC(=O)CNC(=O)[C@H](Cc2ccc(O)cc2)NC(=O)[C@H](Cc2c[nH]c3ccccc23)NC1=O True

Cool, now Nc1ccccc1C(=O)NC[C@@H]1NC(=O)[C@H](NC(=O)[C@@H](N)Cc2ccc(O)cc2)CCCCNC(=O)CNC(=O)[C@H](Cc2ccc(O)cc2)NC1=O (H-Y[dK][Dap](2Abz)YG; lactam 2-C) False

Cool, now N[C@@H](Cc1ccc(O)cc1)C(=O)N[C@@H]1CCCCNC(=O)CNC(=O)[C@H](Cc2ccc(O)cc2)NC(=O)[C@H](Cc2ccccc2)NC1=O True
